// reported Human Plasma Prodrug (%) for each item listed
experimentNotes: Plasma Stability Assay of Example A3, human plasma
conditionSummary: 0 min; 5 μM, 37° C.; % of prodrug compound remaining
Lab book: enter the figure in %, no units written.

>>> numericresult("C/C=C(\\C)C(=O)OC1=C[C@@H]2N(C)CC[C@]2(c2ccc(OC)c(OC)c2)CC1")
100.0

Reported Human Plasma Prodrug (%) of COc1ccc([C@@]23CCC(OC(=O)C4CC4)=C[C@@H]2N(C)CC3)cc1OC : 100.0

Reported Human Plasma Prodrug (%) of COc1ccc([C@@]23CCC(=O)C[C@@H]2N(C)CC3)cc1OC [Compound 001, mesembrine, reference compound] : 100.0

Reported Human Plasma Prodrug (%) of COc1ccc([C@@]23CCC(OC(=O)c4ccc(C(F)(F)F)cc4)=C[C@@H]2N(C)CC3)cc1OC : 100.0

Reported Human Plasma Prodrug (%) of COc1ccc([C@@]23CCC(OC(=O)c4ccc(N(C)C)cc4)=C[C@@H]2N(C)CC3)cc1OC : 100.0

Reported Human Plasma Prodrug (%) of COc1ccc([C@@]23CCC(OC(=O)c4cccc(C(C)(C)C)c4)=C[C@@H]2N(C)CC3)cc1OC : 100

Reported Human Plasma Prodrug (%) of COc1ccc([C@@]23CCC(OC(=O)c4cccc(C)c4)=C[C@@H]2N(C)CC3)cc1OC : 100

Reported Human Plasma Prodrug (%) of COc1ccc([C@@]23CCC(OC(=O)c4ccc(F)cc4)=C[C@@H]2N(C)CC3)cc1OC : 100

Reported Human Plasma Prodrug (%) of COc1ccc([C@@]23CCC(OC(=O)C(c4ccccc4)c4ccccc4)=C[C@@H]2N(C)CC3)cc1OC : 100.0

----------
conditionSummary: 4 h, 10 μM
// reported Prodrug (%) remaining, Human Plasma for each item listed
Lab book: enter the figure in %, no units written.

Past entries and their recorded results:
>>> numericresult("CCCC(CCC)C(=O)OC1=C[C@@H]2N(C)CC[C@]2(c2ccc(OC)c(OC)c2)CC1")
91.2
>>> numericresult("COCCOCCC(=O)OC1=C[C@@H]2N(C)CC[C@]2(c2ccc(OC)c(OC)c2)CC1")
46.7
>>> numericresult("CCCC(C)C(=O)OC1=C[C@@H]2N(C)CC[C@]2(c2ccc(OC)c(OC)c2)CC1 (stereo partly drawn)")
1.1
>>> numericresult("COc1ccc([C@@]23CCC(OC(=O)CCN)=C[C@@H]2N(C)CC3)cc1OC")
0.0
>>> numericresult("COc1ccc([C@@]23CCC(OC(=O)CCC(C)C)=C[C@@H]2N(C)CC3)cc1OC")
0.2

Reported Prodrug (%) remaining, Human Plasma of CCCCCC(C)C(=O)OC1=C[C@@H]2N(C)CC[C@]2(c2ccc(OC)c(OC)c2)CC1 (stereo partly drawn) : 1.9

Reported Prodrug (%) remaining, Human Plasma of CCC(C)(C)C(=O)OC1=C[C@@H]2N(C)CC[C@]2(c2ccc(OC)c(OC)c2)CC1 : 46.0

Reported Prodrug (%) remaining, Human Plasma of CCC(CC)C(=O)OC1=C[C@@H]2N(C)CC[C@]2(c2ccc(OC)c(OC)c2)CC1 : 66.4

Reported Prodrug (%) remaining, Human Plasma of CCCC(C)(C)C(=O)OC1=C[C@@H]2N(C)CC[C@]2(c2ccc(OC)c(OC)c2)CC1 : 84.6

Reported Prodrug (%) remaining, Human Plasma of COc1ccc([C@@]23CCC(OC(=O)c4cccc(C)c4)=C[C@@H]2N(C)CC3)cc1OC : 95.4

----------
// reported Condition 1 Conversion (%) for each item listed
Type: physicochemical
conditionSummary: SGF with pepsin, pH 1.5, 37° C., 0.5 mM; time 24 h
Lab book: enter the figure in %, no units written.

Reported Condition 1 Conversion (%) of COc1ccc([C@@]23CCC(=NOCCO)C[C@@H]2N(C)CC3)cc1OC : 26.48

Reported Condition 1 Conversion (%) of COc1ccc([C@@]23CCC(OC(=O)C(C)(C)C)=C[C@@H]2N(C)CC3)cc1OC : 0

----------
Assay type: physicochemical
conditionSummary: SGF with pepsin, pH 1.5, 37° C., 0.5 mM; time 1 h
// reported Condition 1 Conversion (%) for each item listed
Lab book: enter the figure in %, no units written.

Past entries and their recorded results:
>>> numericresult("COc1ccc([C@@]23CCC(=NNCc4cccc(C)c4)C[C@@H]2N(C)CC3)cc1OC")
100
>>> numericresult("COc1ccc([C@@]23CCC(=NNc4ccc(Cl)cc4)C[C@@H]2N(C)CC3)cc1OC")
3.4
>>> numericresult("COc1ccc([C@@]23CCC(OC(=O)c4ccccc4C)=C[C@@H]2N(C)CC3)cc1OC")
0

Reported Condition 1 Conversion (%) of COc1ccc([C@@]23CCC(=NNC(=O)Nc4ccc(S(C)(=O)=O)cc4)C[C@@H]2N(C)CC3)cc1OC : 89.8

Reported Condition 1 Conversion (%) of COc1ccc([C@@]23CCC(=NOCC(=O)O)C[C@@H]2N(C)CC3)cc1OC : 0

Reported Condition 1 Conversion (%) of COc1ccc([C@@]23CC/C(=N\NC(=O)Nc4ccc(N5CCN(C)CC5)cc4)C[C@@H]2N(C)CC3)cc1OC : 100

----------
conditionSummary: 1 h, 10 μM
// reported Prodrug (%) remaining, Human Plasma for each item listed
Lab book: enter the figure in %, no units written.

>>> numericresult("COCCOCCC(=O)OC1=C[C@@H]2N(C)CC[C@]2(c2ccc(OC)c(OC)c2)CC1")
87.0
>>> numericresult("COc1ccc([C@@]23CCC(OC(=O)CC(C)(C)C)=C[C@@H]2N(C)CC3)cc1OC")
62.8
>>> numericresult("CCCC(CC)CC(=O)OC1=C[C@@H]2N(C)CC[C@]2(c2ccc(OC)c(OC)c2)CC1 (some centres unmarked)")
72.4
>>> numericresult("CCCC(C)C(=O)OC1=C[C@@H]2N(C)CC[C@]2(c2ccc(OC)c(OC)c2)CC1 (some centres unmarked)")
2.1
>>> numericresult("COc1ccc([C@@]23CCC(OC(=O)CCC(C)C)=C[C@@H]2N(C)CC3)cc1OC")
0.5
>>> numericresult("COCCCCC(=O)OC1=C[C@@H]2N(C)CC[C@]2(c2ccc(OC)c(OC)c2)CC1")
7.6
>>> numericresult("CCC(C)C(=O)OC1=C[C@@H]2N(C)CC[C@]2(c2ccc(OC)c(OC)c2)CC1 (some centres unmarked)")
4.0
>>> numericresult("COc1ccc([C@@]23CCC(OC(=O)c4cccc(C)c4C)=C[C@@H]2N(C)CC3)cc1OC")
94.8

# input for lookup
Reported Prodrug (%) remaining, Human Plasma of CCCCCC(C)C(=O)OC1=C[C@@H]2N(C)CC[C@]2(c2ccc(OC)c(OC)c2)CC1 (some centres unmarked) : 5.2

----------
// reported Condition 1 Conversion (%) for each item listed
Type: physicochemical
conditionSummary: SGF with pepsin, pH 1.5, 37° C., 0.5 mM; time 1 min
Lab book: enter the figure in %, no units written.

>>> numericresult("COc1ccc([C@@]23CCC(=NOCCO)C[C@@H]2N(C)CC3)cc1OC")
0
>>> numericresult("COc1ccc(C23CCN(C)C2CC2(CC3)OCCO2)cc1OC (stereo not drawn)")
0
>>> numericresult("COc1ccc([C@]23CCN(C)[C@H]2CC(OC)(OC)CC3)cc1OC (stereo in doubt)")
0

Reported Condition 1 Conversion (%) of COc1ccc([C@]23CCN(C)[C@H]2CC2(CC3)OC[C@H]([C@@H](O)[C@@H](O)Cn3c4nc(=O)[nH]c(=O)c-4nc4cc(C)c(C)cc43)O2)cc1OC (stereo partly drawn) : 0

Reported Condition 1 Conversion (%) of COc1ccc([C@@]23CCC(=NNC(=O)Nc4ccc(C(=O)O)cc4)C[C@@H]2N(C)CC3)cc1OC (racemic) : 3.6

Reported Condition 1 Conversion (%) of COc1ccc([C@@]23CCC(=NOCc4cccnc4)C[C@@H]2N(C)CC3)cc1OC : 0

Reported Condition 1 Conversion (%) of COc1ccc([C@@]23CCN(C)[C@@H]2CC2(CC3)SCCS2)cc1OC : 0

Reported Condition 1 Conversion (%) of COc1ccc([C@@]23CCC(=NNC(=O)Nc4ccc(S(C)(=O)=O)cc4)C[C@@H]2N(C)CC3)cc1OC : 20.9

----------
Assay type: physicochemical
conditionSummary: SGF with pepsin, pH 1.5, 37° C., 0.5 mM; time 1 min
// reported Condition 1 Conversion (%) for each item listed
In your response, put the unit directly after the numeric value.

>>> result("CCC(=O)OC1=C[C@@H]2N(C)CC[C@]2(c2ccc(OC)c(OC)c2)CC1 [Compound 317]")
"0%"
>>> result("COc1ccc([C@@]23CCC(=NOCc4ccccc4)C[C@@H]2N(C)CC3)cc1OC [Compound 208]")
"0%"
>>> result("COc1ccc([C@@]23CCC(=NNc4ncccc4C)C[C@@H]2N(C)CC3)cc1OC [Compound 364]")
"10%"
>>> result("CCON=C1CC[C@@]2(c3ccc(OC)c(OC)c3)CCN(C)[C@H]2C1 [Compound 200]")
"0%"
>>> result("COc1ccc([C@@]23CCC(OC(=O)CC(C)C)=C[C@@H]2N(C)CC3)cc1OC [Compound 334]")
"0%"

Reported Condition 1 Conversion (%) of COc1ccc([C@@]23CCC(=NOCC(=O)OC(C)(C)C)C[C@@H]2N(C)CC3)cc1OC [Compound 202] : 0%

Reported Condition 1 Conversion (%) of COc1ccc([C@@]23CCC(=NNC(=O)CC(CC(=O)O)CC(C)C)C[C@@H]2N(C)CC3)cc1OC (stereo partly drawn) [Compound 242] : 75.01%

Reported Condition 1 Conversion (%) of COc1ccc([C@@]23CCC(=NNC(=O)C45CC6CC(CC(C6)C4)C5)C[C@@H]2N(C)CC3)cc1OC [Compound 271] : 100%

Reported Condition 1 Conversion (%) of COc1ccc([C@@]23CC/C(=N\NC(=O)Nc4ccccc4Cl)C[C@@H]2N(C)CC3)cc1OC [Compound 249] : 0%
